Cited source for all entries: ChEMBL document CHEMBL1201862

- System: K562
- assay notes: NCI tumour cell line growth inhibition, 48 h
The source made the active and inactive calls. No stated cut-off is given here; in the data, active = GI50 up to about 1.1 µM and inactive = higher.
The compounds listed here are annotated with their GI50.

compound	GI50
COCCOC(=O)NCn1cc(-c2ccccc2)nn1	> 100 µM (inactive)

Query :: Lookup: GI50 / K562 / COc1ccc(O)c(/C=N\Nc2ccccc2)c1
Result :: 3.19 µM (inactive)

Query :: Lookup: GI50 / K562 / O=C=NCCCCCCN1C(=O)N2C(c3ccccc3)N(CCCCCCN=C=O)C(=O)N2C1c1ccccc1 (centres undefined)
Result :: > 100 µM (inactive)

Query :: Lookup: GI50 / K562 / N#C/C(C(=S)Nc1ccccc1)=C(/N)N1CCCC1
Result :: > 100 µM (inactive)

Query :: Lookup: GI50 / K562 / CN1CCC23c4c5ccc(Oc6nnnn6-c6ccccc6)c4OC2c2[nH]c4ccccc4c2CC3(O)C1C5 (centres undefined)
Result :: 1.81 µM (inactive)

Query :: Lookup: GI50 / K562 / Cc1c(CCN2CCOCC2)c(N2CCOCC2)n2c(nc3ccccc32)c1C#N
Result :: > 10 µM (inactive)

Query :: Lookup: GI50 / K562 / COC(=O)C1(C(=O)OC)CC2=C(S(=O)(=O)c3ccccc3)C[C@H](S(=O)(=O)c3ccccc3)[C@H]2C1
Result :: 23.7 µM (inactive)

Query :: Lookup: GI50 / K562 / CC(=O)N1N(c2ccc([N+](=O)[O-])cc2)C(=O)C1(C)C
Result :: 17 µM (inactive)

Query :: Lookup: GI50 / K562 / Cc1cc(N(C)C)c2ccccc2[n+]1CCCCCCCCCC[n+]1c(C)cc(N(C)C)c2ccccc21.[O-][Cl+3]([O-])([O-])[O-].[O-][Cl+3]([O-])([O-])[O-]
Result :: 0.128 µM (active)

Query :: Lookup: GI50 / K562 / COc1cc(/C=C2\N=C(c3ccccc3)N(C3Nc4cc5c(cc4S3)NC(N3C(=O)/C(=C/c4cc(OC)c(OC)c(OC)c4)N=C3c3ccccc3)S5)C2=O)cc(OC)c1OC (centres undefined)
Result :: 71.9 µM (inactive)

Query :: Lookup: GI50 / K562 / COc1ccc2[nH]cc(CCNC(=O)[C@](O)(Cc3cn(C)c4ccccc34)[C@@]3(O)OCC(O)C3O)c2c1 (some centres undefined)
Result :: 74 µM (inactive)

Query :: Lookup: GI50 / K562 / CCN(CC)CC(O)CNc1ccc(NCC2CO2)c2c1C(=O)c1ccccc1C2=O (centres undefined)
Result :: 0.0479 µM (active)

Query :: Lookup: GI50 / K562 / O=C(Cc1ccc(F)cc1)NC1=C(Cl)C(=O)c2ccccc2C1=O
Result :: 1.54 µM (inactive)

Query :: Lookup: GI50 / K562 / O=C(Nc1ccc(Cl)cc1)c1cc2c(cc1Cl)Sc1nccn1S2(=O)=O
Result :: 14.1 µM (inactive)
